This section presents molecules with their documented growth AUC values.
# Tested on: Bacteroides clarus
# METHOD: growth AUC relative to DMSO control (median of replicates) (fraction); higher = more growth (less inhibition), active = hit call of the paper
# DETAILS: 20 µM; 24 h
PROPERTY LABEL: growth AUC

>>> result("CCS(=O)(=O)c1nnc(N(C)C(=O)NC)s1")
"0.977 (inactive)"
>>> result("CCSC(=O)COc1ccc(Cl)cc1C")
"0.982 (inactive)"
>>> result("CP(=O)(O)CCC(=O)O")
"0.956 (inactive)"
>>> result("CCNC(=O)[C@@H](C)OC(=O)Nc1ccccc1")
"1.02 (inactive)"
>>> result("CCCCOCCOC(=O)COc1ccc(Cl)cc1Cl")
"0.991 (inactive)"
>>> result("CN(C)C(=O)Nc1cc(C(C)(C)C)on1")
"0.997 (inactive)"
>>> result("CNC(=O)/C(=N/OC)c1ccccc1COc1cc(C(=O)O)ccc1C")
"1.03 (inactive)"
>>> result("CC1(C)C(=O)Oc2ccc(OS(C)(=O)=O)cc21")
"0.993 (inactive)"
>>> result("O=C(O)COc1cccc(Cl)c1Cl")
"0.971 (inactive)"
>>> result("CC(C)(C)Nc1nc(N)nc(Cl)n1")
"0.997 (inactive)"
>>> result("Oc1ccc2nc(-c3cscn3)[nH]c2c1")
"0.955 (inactive)"
>>> result("O=C(Oc1ccccc1)n1c(C(F)(F)F)nc2cc(Cl)c(Cl)cc21")
"0.121 (active)"
>>> result("N#Cc1c(N)nc(NC2CC2)nc1N")
"0.972 (inactive)"
>>> result("CC(=O)CC(c1ccccc1)c1c(O)c2ccccc2oc1=O (centres undefined)")
"0.93 (inactive)"
>>> result("CCOc1ccc2c(c1)C(C)=CC(C)(C)N2")
"1 (inactive)"
>>> result("O=[N+]([O-])c1ccc(O)cc1")
"0.994 (inactive)"
>>> result("NC(=S)Nc1cccc2ccccc12")
"0.991 (inactive)"
>>> result("CC1=C(c2ccccc2)C(=O)N(C(C)(C)c2cc(Cl)cc(Cl)c2)CO1")
"0.925 (inactive)"
>>> result("NC(Cn1cncn1)C(=O)O (centres undefined)")
"0.992 (inactive)"
>>> result("CCC/C(=N\\OCC(C)Oc1ccc(Cl)cc1)C1=C(O)CC(C2CCCSC2)CC1=O (centres undefined)")
"0.958 (inactive)"
>>> result("Cc1ccc2c(c1)[C@H](Nc1nc(N)nc(C(C)F)n1)[C@@H](C)C2 (some centres undefined)")
"0.969 (inactive)"
>>> result("COCC(=O)N(c1c(C)cccc1C(=O)O)C(C)C(=O)O (centres undefined)")
"0.979 (inactive)"
>>> result("COc1cc(OC)c(Cl)cc1N")
"0.995 (inactive)"
>>> result("N#Cc1cc(Cl)c(O)c(Cl)c1")
"1 (inactive)"
>>> result("CCN(Cc1c(F)cccc1Cl)c1c([N+](=O)[O-])cc(C(F)(F)F)cc1[N+](=O)[O-]")
"0.831 (inactive)"
>>> result("CCCNCCOc1c(Cl)cc(Cl)cc1Cl")
"0.979 (inactive)"
>>> result("COC(=O)C(C)Oc1ccc(Cl)cc1Cl (centres undefined)")
"1 (inactive)"
>>> result("CCCCCCCC/C=C\\CCCCCCCCCCCCC")
"0.982 (inactive)"
>>> result("c1cc2ccc3ccc4ccc5cccc6c(c1)c2c3c4c56")
"1 (inactive)"
>>> result("CCOC(=O)c1nc(C(Cl)(Cl)Cl)n(-c2ccc(Cl)cc2Cl)n1")
"1 (inactive)"
>>> result("Nc1ccc(O)cc1")
"1.01 (inactive)"
>>> result("CCOC(=O)c1cnn(C)c1S(=O)(=O)NC(=O)Nc1nc(OC)cc(OC)n1")
"1.02 (inactive)"
>>> result("O=C(O)c1ccc(Cl)cc1Cl")
"0.989 (inactive)"
>>> result("CCNc1nc(NC(C)(C)C)[nH]c(=O)n1")
"0.98 (inactive)"

Data provenance is the supplement of paper PMC12669032.
